The binders listed here are annotated with their Ki.
target: trypsin; experiment: other, trypsin inhibition
Bridge positions count the residues as written; N and C are the ends. Ends that are not written are not given here.
Report only the number, with the unit nM understood.

Record excerpt, results attached:
| binder | unit_of_measurement | Ki |
| --- | --- | --- |
| IPRCRKMPGVKMC (disulfide 4-13; not fully specified) [Seq07] | nM | 20 |
| VQQCSEIAGAKPC (disulfide 4-13) [Seq04] | nM | 42 |
| IPRCRKMPGVKMC (disulfide 4-13; not fully specified) [Seq08] | nM | 24.8 |

Consider the binder IPRCRKMPGVKMC (disulfide 4-13; not fully specified) [Seq09] and give its measured Ki.
21.8

Consider the binder IPRCRAMPGVKMC (disulfide 4-13) [Seq06] and give its measured Ki.
24.2

Consider the binder VEQCTIIGDEKDC (disulfide 4-13) [Seq02] and give its measured Ki.
24
